Source listed as ChEMBL document CHEMBL4715846.

molecular target: Epidermal growth factor receptor (Homo sapiens, UniProt P00533, C797S/L858R/T790M); experiment: Inhibition of EGFR L858R/T790M/C797S (unknown origin) using Poly (Glu, Tyr) as substrate measured after 40 mins by kinase-glo assay
Sequence (P00533 25-1210 T790M/C797S/L858R limits assumed): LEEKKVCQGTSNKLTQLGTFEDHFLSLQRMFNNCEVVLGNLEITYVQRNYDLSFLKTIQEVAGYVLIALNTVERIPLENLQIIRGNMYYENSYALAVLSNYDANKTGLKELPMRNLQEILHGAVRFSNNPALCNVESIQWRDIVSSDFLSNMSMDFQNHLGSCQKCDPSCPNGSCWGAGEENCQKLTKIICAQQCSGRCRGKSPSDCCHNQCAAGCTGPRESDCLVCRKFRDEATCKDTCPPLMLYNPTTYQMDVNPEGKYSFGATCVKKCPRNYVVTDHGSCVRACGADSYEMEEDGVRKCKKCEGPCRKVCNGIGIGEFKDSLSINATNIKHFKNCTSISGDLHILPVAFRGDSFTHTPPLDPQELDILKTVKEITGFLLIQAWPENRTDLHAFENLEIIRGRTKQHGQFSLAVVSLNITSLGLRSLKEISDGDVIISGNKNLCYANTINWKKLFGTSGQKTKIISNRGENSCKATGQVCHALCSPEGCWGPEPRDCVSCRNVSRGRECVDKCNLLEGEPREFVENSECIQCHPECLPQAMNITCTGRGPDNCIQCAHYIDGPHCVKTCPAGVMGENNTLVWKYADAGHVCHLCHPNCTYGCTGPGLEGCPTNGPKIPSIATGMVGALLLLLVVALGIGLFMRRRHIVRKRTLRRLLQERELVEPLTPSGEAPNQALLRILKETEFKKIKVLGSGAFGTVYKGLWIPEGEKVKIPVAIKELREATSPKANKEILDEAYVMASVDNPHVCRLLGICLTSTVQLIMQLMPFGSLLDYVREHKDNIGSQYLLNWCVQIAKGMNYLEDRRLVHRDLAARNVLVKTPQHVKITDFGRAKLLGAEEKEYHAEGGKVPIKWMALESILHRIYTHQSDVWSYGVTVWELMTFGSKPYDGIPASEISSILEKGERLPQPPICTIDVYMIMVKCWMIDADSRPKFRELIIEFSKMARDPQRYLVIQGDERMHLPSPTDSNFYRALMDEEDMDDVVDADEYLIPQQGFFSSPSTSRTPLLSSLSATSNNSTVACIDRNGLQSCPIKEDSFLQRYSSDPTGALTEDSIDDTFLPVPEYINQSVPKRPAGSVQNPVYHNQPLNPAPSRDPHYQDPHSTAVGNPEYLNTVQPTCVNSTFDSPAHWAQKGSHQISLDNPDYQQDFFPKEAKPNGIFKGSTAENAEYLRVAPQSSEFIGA
readout: IC50 (nM)

smiles-text	IC50 (nM)
CN1CCN(c2ccc(Nc3ncc4nc(Nc5ccc(F)cc5)n([C@@H]5CCN(S(=O)(=O)C6CC6)C5)c4n3)cc2)CC1	22
CN1CCN(c2ccc(Nc3ncc4nc(Nc5ccc(F)cc5)n([C@H]5CCN(C(=O)OC(C)(C)C)C5)c4n3)cc2)CC1	122
CN1CCN(c2ccc(Nc3ncc4nc(Nc5ccccc5)n([C@@H]5CCN(S(=O)(=O)C6CC6)C5)c4n3)cc2)CC1	18

[A] CN1CCN(c2ccc(Nc3ncc4nc(Nc5ccccc5)n([C@H]5CCN(S(=O)(=O)C6CC6)C5)c4n3)cc2)CC1
[B] CNC(=O)CN1CC[C@H](n2c(Nc3ccc(F)cc3)nc3cnc(Nc4ccc(N5CCN(C)CC5)cc4)nc32)C1
Query: Form field 'greater IC50' accepts A or B ; which applies? # reply format: chosen label
Reply: B
(B: 561 nM, A: 40 nM)

---

test system: HCC827; assay: Induction of apoptosis in human HCC827 cells assessed as viable cells at 1 uM measured after 24 hrs by Annexin V-FITC/propidium iodide staining based flow cytometry (reference value: 77.08%); assay type: functional; conditions: read-out: Activity
Examples of compounds with documented viability at 1 µM follow.
// note: answer is a bare numeric in %

Worked cases, answers included:
smiles-text	tested-target	readout	unit-abbrev	val
CN1CCN(c2ccc(Nc3ncc4nc(Nc5ccccc5)n([C@@H]5CCN(S(=O)(=O)C6CC6)C5)c4n3)cc2)CC1	HCC827	viability at 1 µM	%	28.6
CN1CCN(c2ccc(Nc3ncc4nc(Nc5ccccc5)n([C@H]5CCN(S(=O)(=O)C6CC6)C5)c4n3)cc2)CC1	HCC827	viability at 1 µM	%	31.2
CN1CCN(c2ccc(Nc3ncc4nc(Nc5ccc(F)cc5)n([C@@H]5CCN(S(=O)(=O)C6CC6)C5)c4n3)cc2)CC1	HCC827	viability at 1 µM	%	32.5

// next entry
Query: Using the record for `CN1CCN(c2ccc(Nc3ncc4nc(Nc5ccc(F)cc5)n([C@H]5CCCN(C(=O)CO)C5)c4n3)cc2)CC1` , report its viability at 1 µM.
Reply: 31.5
